system: HCT-116; assay: NCI tumour cell line growth inhibition, 48 h
Active and inactive are the calls of the source. Rule as the data show it: active = GI50 up to about 1.1 µM and inactive = higher.
measure: GI50

Reference set, count: 5
O=C(O)C[C@@H](Cl)[C@H](NC(=O)OCc1ccccc1)C(=O)O    > 100 µM (inactive)
C=C1C(=O)O[C@H]2C1C[C@H](O)/C(C)=C/CC[C@@]1(C)O[C@H]21 (some centres not stated)    14.8 µM (inactive)
CCC(=O)c1c(NOC2OCC(OC(C)=O)C(OC(C)=O)C2OC(C)=O)nc(OC)n(C)c1=O (configuration not stated)    > 100 µM (inactive)
Cc1nc2ccccc2c(=O)n1NC(=S)Nc1cccc(Cl)c1    > 100 µM (inactive)
CC(C)=CCNc1ncnc2c1ncn2CCC(=O)O    > 100 µM (inactive)

Using the record for `Cc1cc(S(=O)(=O)[N-]/C(=N/S(=O)(=O)c2cc(Cl)sc2Cl)[n+]2ccc(N(C)C)cc2)c(S)cc1Cl` , state its measured GI50.
24.1 µM (inactive)

State its GI50 for this molecule: `COc1ccc(N2C(=O)c3c(c4[nH]c5ccccc5c4c4ccc(C(C)(C)C)cc34)C2=O)cc1`
69.7 µM (inactive)

Assign GI50 to the following record: Cc1ccccc1C(C#N)/C(=N/NC(N)=S)C(=O)Nc1c(C)cccc1C (configuration not stated)
> 100 µM (inactive)

Give a short answer stating reported GI50 for `O=C(/C=C(\S/C=C(/c1ccccc1)N1CCn2c(C(=O)c3ccccc3)c(C(=O)c3ccccc3)c(C(=O)c3ccccc3)c21)C(=O)c1ccccc1)c1ccccc1` .
> 10 µM (inactive)

Please give the documented GI50 of `C=C[C@@H](C)[C@H](NS(=O)(=O)c1ccc(C)cc1)C(=O)OCC`
35.5 µM (inactive)

Please list GI50 recorded for the molecule `O=CN1CCN(C(=O)c2ccco2)C1=S`
12.2 µM (inactive)

State, in one line, measured GI50 of `COc1ccc(-c2oc3cc(OC)c(OC)c(OC)c3c(=O)c2OC)cc1OC`
> 100 µM (inactive)

====

test system: SF-268; experiment: NCI tumour cell line growth inhibition, 48 h
Activity calls are given as the source filed them. Rule as the data show it: active = GI50 up to about 1.1 µM and inactive = higher.
measure: GI50

Past entries and their recorded results:
CC1(c2cccc(C(F)(F)F)c2)CC(c2cccc(C(F)(F)F)c2)=C(C#N)C(=C(C#N)C#N)N1 (stereo not drawn)    15 µM (inactive)
CCN(CC)CCOC(c1cc(OC)ccc1OC)c1ccc2n1-c1ccccc1OC2 (stereo not drawn)    14.5 µM (inactive)
Cc1c(C(=O)CC(=O)C(=O)Nc2cc(Cl)ccc2Cl)[n+]([O-])c2ccccc2[n+]1[O-]    33.4 µM (inactive)
CC1=Nn2c(nnc2-c2ccccc2Cl)NC(C)(C)C1    > 100 µM (inactive)
C=C1C(=O)C23CC1C[C@H](OC(C)=O)C2C1(C)C(OC(C)=O)C[C@H](O)C(C)(C)[C@H]1C(O)[C@@H]3OC(C)=O (stereo partly drawn)    13.4 µM (inactive)
COCC1N=C(c2cc(OC)c(OC)c(OC)c2-c2cc3c(cc2[C@@H](C)O)OCO3)O[C@H]1c1ccccc1 (stereo partly drawn)    > 66.2 µM (inactive)

Give GI50 for `CC1(C)O[C@@H]2COC(=O)[C@@H]2O1`
> 100 µM (inactive)

Return GI50 for the following molecule: COC(=O)N1CC(=O)C(C(=O)NC23CC4CC(CC(C4)C2)C3)C1 (stereo not drawn)
37.7 µM (inactive)
